- Target or system: Somatostatin receptor 1 (SSTR1) (human), P30872
- Sequence (P30872 whole entry): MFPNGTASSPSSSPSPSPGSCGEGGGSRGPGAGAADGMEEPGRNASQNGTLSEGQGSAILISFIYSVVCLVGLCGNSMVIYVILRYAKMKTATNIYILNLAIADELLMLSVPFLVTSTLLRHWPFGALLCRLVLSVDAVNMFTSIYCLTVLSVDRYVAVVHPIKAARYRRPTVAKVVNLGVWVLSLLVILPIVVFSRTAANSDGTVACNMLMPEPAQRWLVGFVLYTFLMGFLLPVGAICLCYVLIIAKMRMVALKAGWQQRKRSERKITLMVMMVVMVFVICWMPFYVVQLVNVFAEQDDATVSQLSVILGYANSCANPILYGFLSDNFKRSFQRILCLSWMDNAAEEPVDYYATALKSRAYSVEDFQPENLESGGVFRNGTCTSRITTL
- Condition parameters: chains peptide; internal disulfide bond between the two cysteines (cyclic peptide)
Bridges are numbered along the chain shown (N, C = ends). Where no end group is shown, it is not given here.
Attribute measured: pIC50
Numbers only, as −log10 of the molar value.

Request: Suppose we examine the binder PCKNFFWKTFSSCK (disulfide 2-13 (inferred)) [Cortistatin-14 (r,mCST-14), Q62949 99-112] ; what pIC50 value has been reported?
Response: 8.77

# credit: paper PMC7994712
